- system: Glucocerebrosidase (Homo sapiens (Human), UniProt P04062)
- Sequence (P04062 40-536): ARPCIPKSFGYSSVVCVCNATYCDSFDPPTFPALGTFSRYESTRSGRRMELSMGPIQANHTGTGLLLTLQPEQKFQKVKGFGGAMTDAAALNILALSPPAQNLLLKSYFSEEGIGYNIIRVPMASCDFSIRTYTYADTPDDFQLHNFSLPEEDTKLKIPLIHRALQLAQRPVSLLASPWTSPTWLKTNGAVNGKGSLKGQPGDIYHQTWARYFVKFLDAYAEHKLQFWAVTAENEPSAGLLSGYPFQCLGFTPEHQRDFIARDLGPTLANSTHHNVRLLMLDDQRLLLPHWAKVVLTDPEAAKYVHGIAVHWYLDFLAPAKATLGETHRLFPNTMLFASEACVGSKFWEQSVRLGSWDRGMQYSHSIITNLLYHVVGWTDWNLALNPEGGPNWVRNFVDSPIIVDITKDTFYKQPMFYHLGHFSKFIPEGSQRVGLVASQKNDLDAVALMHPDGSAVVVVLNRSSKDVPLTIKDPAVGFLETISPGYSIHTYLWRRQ
- assay.info: Glucocerebrosidase activity assay with blue substrate (4MU-Glc)
- Type: biochemical
- conditions: marked (inh), inhibitor; read-out: IC50 or AC50 (inh)
assay.metric: IC50 (nM)

Below, 5 compounds whose answers are already recorded.
c1ccc(CNc2nc(-c3cccnc3)nc3ccccc23)cc1 [compound 51] ... 7080
c1cncc(-c2nc(NC3CCC3)c3ccccc3n2)c1 [compound 43] ... 4470
c1cncc(-c2nc(NC34CC5CC(CC(C5)C3)C4)c3ccccc3n2)c1 [compound 79] ... 1120
c1cncc(-c2nc(NC3CCCc4ccccc43)c3ccccc3n2)c1 (stereo not shown) [compound 68] ... 1120
c1cncc(-c2nc(NC3Cc4ccccc4C3)c3ccccc3n2)c1 [compound 1] ... 7

I: Ic1ccc2c(c1)CC(Nc1nc(-c3cccnc3)nc3ccccc13)C2 (stereo not shown) [compound 89]
II: Cc1ccc(CCNc2nc(-c3cccnc3)nc3ccccc23)cc1 [compound 73]
-- ask Out of I and II , name the one with the higher IC50. Kindly state the label of the option you pick.
-- reply II
(II: 1780 nM, I: 168 nM)
